Data provenance: paper PMC12528898

Target: T1, mNeon PPM1H (full-length PPM1H with mNeon inserted into loop 1 at position 125) (human, UniProt Q9ULR3 1-514)
T1 construct: PPM1H phosphatase, human, full length; mNeon inserted into loop 1 (residues 115-133) at position 125; the plasmid is pET15b His SUMO mNeon PPM1H; His-SUMO removed by Ulp1 before gel filtration; also called WT PPM1H; HisSUMO-mNeon PPM1H; not shown: mNeon, internal (loop 1, at position 125), kept
T1 sequence (looked up): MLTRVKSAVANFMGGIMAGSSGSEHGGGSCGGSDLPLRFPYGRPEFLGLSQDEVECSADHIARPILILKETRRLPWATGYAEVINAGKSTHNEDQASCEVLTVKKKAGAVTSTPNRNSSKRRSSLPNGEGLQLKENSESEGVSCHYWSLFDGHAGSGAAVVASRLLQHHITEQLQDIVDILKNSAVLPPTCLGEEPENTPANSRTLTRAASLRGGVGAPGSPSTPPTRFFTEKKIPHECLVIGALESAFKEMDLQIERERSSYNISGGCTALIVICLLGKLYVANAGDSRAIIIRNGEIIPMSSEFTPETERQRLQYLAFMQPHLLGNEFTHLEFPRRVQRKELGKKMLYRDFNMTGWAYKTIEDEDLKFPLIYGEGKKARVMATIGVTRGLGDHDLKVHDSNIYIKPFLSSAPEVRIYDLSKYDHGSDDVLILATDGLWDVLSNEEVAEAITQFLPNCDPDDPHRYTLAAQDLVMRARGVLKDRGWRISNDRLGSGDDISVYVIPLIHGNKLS
Assay: MST; unlabelled Rab protein (16 serial dilutions) titrated against 100 nM fluorescent mNeon PPM1H variant; 30 min in the dark; Monolith NT.115; three independent measurements with different protein preparations
Details: both partners purified
MEASURED_ATTRIBUTE: Kd (nM)
Return type: number; implicit unit nM.

Ask | What does the record list as Kd for His Rab8A Q67L (full length, nonprenylated, nonphosphorylated) (natural protein, human, UniProt P61006 1-207, looked up, subcloned from HA-Rab8A (DU35414) into pET14b; also called Rab8A-6XHis; unphosphorylated Rab8A; source: E. coli, purified (TALON, Superdex 75), 20 μM GTP in all buffers) MAKTYDYLFKLLLIGDSGVGKTCVLFRFSEDAFNSTFISTIGIDFKIRTIELDGKRIKLQIWDTAGLERFRTITTAYYRGAMGIMLVYDITNEKSFDNIRNWIRNIEEHASADVEKMILGNKCDVNDKRQVSKERGEKLALDYGIKFMETSAKANINVENAFFTLARDIKAKMDKKLEGNSPQGSNQGVKITPDQQKRSSFFRCVLL ?
Reply | 1400
